- Study System: LATS1 (Homo sapiens, UniProt O95835)
- Sequence (O95835 whole entry): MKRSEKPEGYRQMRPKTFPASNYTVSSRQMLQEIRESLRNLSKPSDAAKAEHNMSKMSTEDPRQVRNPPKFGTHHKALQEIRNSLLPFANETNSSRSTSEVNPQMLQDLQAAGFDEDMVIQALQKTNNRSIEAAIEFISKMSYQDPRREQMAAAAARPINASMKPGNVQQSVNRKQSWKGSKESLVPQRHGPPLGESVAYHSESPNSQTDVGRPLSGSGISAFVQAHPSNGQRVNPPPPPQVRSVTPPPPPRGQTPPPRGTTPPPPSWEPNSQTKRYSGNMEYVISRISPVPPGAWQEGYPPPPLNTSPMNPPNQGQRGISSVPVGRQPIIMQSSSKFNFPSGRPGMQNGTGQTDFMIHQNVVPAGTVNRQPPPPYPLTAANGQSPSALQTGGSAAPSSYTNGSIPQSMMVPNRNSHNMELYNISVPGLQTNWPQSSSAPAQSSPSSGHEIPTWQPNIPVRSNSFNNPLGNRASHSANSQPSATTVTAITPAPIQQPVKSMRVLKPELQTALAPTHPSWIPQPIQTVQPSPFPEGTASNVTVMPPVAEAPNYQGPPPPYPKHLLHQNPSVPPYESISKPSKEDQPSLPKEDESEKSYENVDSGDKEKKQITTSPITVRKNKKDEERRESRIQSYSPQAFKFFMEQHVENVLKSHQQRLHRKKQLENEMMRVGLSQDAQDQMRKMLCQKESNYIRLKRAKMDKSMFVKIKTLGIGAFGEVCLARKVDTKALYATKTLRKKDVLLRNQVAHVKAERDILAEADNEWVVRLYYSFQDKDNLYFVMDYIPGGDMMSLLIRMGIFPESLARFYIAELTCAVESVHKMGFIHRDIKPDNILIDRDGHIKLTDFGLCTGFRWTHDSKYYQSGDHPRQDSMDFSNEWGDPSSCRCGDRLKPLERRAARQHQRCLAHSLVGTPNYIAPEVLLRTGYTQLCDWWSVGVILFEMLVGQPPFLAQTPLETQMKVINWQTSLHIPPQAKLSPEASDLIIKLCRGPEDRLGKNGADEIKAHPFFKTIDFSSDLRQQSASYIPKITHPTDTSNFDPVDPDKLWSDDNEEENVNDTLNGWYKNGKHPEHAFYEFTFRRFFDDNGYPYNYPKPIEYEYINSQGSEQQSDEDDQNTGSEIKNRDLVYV
- Method: RBC HotSpot kinase assay (33P-ATP, P81 filter-binding), LATS1
- Type: biochemical
- Measurement Context: Table 28, biochemical kinase assay; read-out: LATS1 IC50
Reported Property: IC50 (nM)

(I) C[C@@H]1CN(C)C[C@H](C)[C@@]1(O)c1ccc(-c2ccnc3[nH]cc(F)c23)cc1Cl
(II) NCc1ccc(-c2ccnc3[nH]ccc23)nc1
Query: Which value of IC50 is numerically greater: that of I or that of II ? Response format: the label of the selected entry.
Response: II

(1) C[C@@H]1CN(C(=O)C2(N)CC(F)(F)C2)C[C@H](C)C1(O)c1c(F)cc(-c2ccnc3[nH]cc(F)c23)cc1F (stereo partly shown)
(2) C[C@@H]1CN(C(=O)CN)C[C@H](C)[C@@]1(O)c1ccc(-c2ccnc3[nH]cc(F)c23)cc1Cl
Query: Field: entry with larger IC50 (options 1 / 2 ). Returns: label corresponding to the selected item.
Response: 2
(2: 19.9 nM, 1: 12.8 nM)

(A) Cc1cc(-c2ccnc3[nH]cc(F)c23)cc(F)c1C1(O)[C@H](C)CN(C(=O)C2CC(F)(F)C2)C[C@@H]1C (stereo partly shown)
(B) CC(C)c1cc(-c2ccnc3[nH]ccc23)ccc1CN
(C) C[C@@H]1CN(C(=O)C(C)(C)N)C[C@H](C)C1(O)c1c(F)cc(-c2ccnc3[nH]cc(F)c23)cc1F (stereo partly shown)
(D) Cc1c[nH]c2nccc(-c3cc(F)c([C@@]4(O)[C@H](C)CNC[C@@H]4C)c(F)c3)c12
(E) OC1(c2c(F)cc(-c3ccnc4[nH]cc(F)c34)cc2F)CC2(CNC2)C1
Query: Exam item: list the entries in increasing order of IC50. Answer format: the labels, ordered as requested.
Response: B, D, A, C, E
(B: 5.6 nM, D: 8.5 nM, A: 14.7 nM, C: 24.6 nM, E: 46 nM)

(I) C[C@@H]1CN(C(=O)C2(N)CC2)C[C@H](C)C1(O)c1c(F)cc(-c2ccnc3[nH]cc(F)c23)cc1F (stereo partly shown)
(II) CC1CNCCC1c1ccc(-c2ccnc3[nH]ccc23)cc1 (stereo not shown)
Query: Looking at recorded values for IC50, does I or II come in lower? Please respond with the label that marks your chosen entry.
Response: I

(P) Fc1ccccc1CNCc1ccc(-c2ccnc3[nH]ccc23)cc1
(Q) Cc1nc(-c2ccnc3[nH]ccc23)ccc1C1(O)CCN(C)CC1
Query: Could you please tell me which of these two has the higher IC50: P or Q ? To answer, give the label that identifies your chosen option.
Response: Q

(I) c1cc(-c2ccc(C3CC4CCCC(C3)N4)cc2)c2cc[nH]c2n1 (stereo not shown)
(II) c1cc(-c2ccc(C3CCCN3)cc2)c2cc[nH]c2n1 (stereo not shown)
Query: Endpoint returns the identifier whose IC50 is numerically larger, either I or II . Selection: enter the item's label.
Response: I
(I: 203 nM, II: 17 nM)

Source listed as patent US20250361230A1.
